Quick reference for pIC50 among some compounds
system: STAT1; assay: IFN-γ-induced STAT1 pathway activation assay; type: cell-based; settings: read-out: STAT1 IC50
pIC50: −log10 of the molar value.

Please review the following examples before continuing.
{"Compound": "Clc1ccc(C2=Nn3c(nnc3-c3[nH]nc4c3CCC4)SC2)s1", "pIC50": "< 4.30"}
{"Compound": "c1ccc(-c2cc(-c3nnc4n3N=C(c3ccncc3)CS4)[nH]n2)cc1", "pIC50": "< 4.30"}
{"Compound": "CC1=Nn2c(nnc2-c2[nH]nc3c2CCC3)SC1 [Compound 10a]", "pIC50": "< 4.30"}
{"Compound": "CC(C)CC1Sc2nnc(-c3[nH]nc4c3CCC4)n2N=C1c1ccc(Cl)c(Cl)c1 (stereo not drawn)", "pIC50": "< 4.30"}
{"Compound": "COc1ccc(C2=Nn3c(nnc3-c3cc(-c4ccc(F)cc4)n[nH]3)SC2C)cc1 (stereo not drawn)", "pIC50": "< 4.52"}

Query COc1ccc(C2=Nn3c(nnc3-c3cc(-c4ccccc4)n[nH]3)SC2CC(C)C)cc1 (stereo not drawn) yields pIC50 of < 4.30

pIC50 for c1ccc(C2=Nn3c(nnc3-c3[nH]nc4c3CCC4)SC2)cc1 is < 4.30

Form field pIC50, entry c1ccc(C2=Nn3c(nnc3-c3cc(-c4ccccc4)[nH]n3)SC2)cc1 : < 4.30

Reported pIC50 ( Clc1ccc(C2=Nn3c(nnc3-c3cc(-c4ccccc4)[nH]n3)SC2)cc1 ) = < 4.30

Per the records, this compound ( Clc1ccc(C2=Nn3c(nnc3-c3[nH]nc4c3CCC4)SC2)cc1Cl ) has pIC50 equal to < 4.30

Record Clc1cccc(C2=Nn3c(nnc3-c3cc(-c4ccccc4)n[nH]3)SC2)c1 . Reported pIC50: 4.34

The reported pIC50 of the compound C1=Nn2c(nnc2-c2cc(-c3ccccc3)n[nH]2)SC1 was < 4.30
